# test target: thrombin (Homo sapiens, UniProt P00734)
# method summary: in vitro inhibition of thrombin amidase activity (fluorogenic substrate Tos-Gly-Pro-Arg-(7-amino-4-methylcoumarin))
# Format: biochemical
# Set-up: with 10 μL of human thrombin solution
# settings: peptide concentration of 10 μM
Non-standard residues stand in square brackets, D forms with d. Residues, ends and D or L forms follow the SMILES beside them. Cha = N[CH](CC1CCCCC1)C(=O)O; Nle = CCCC[CH](N)C(=O)O; Orn = NCCC[CH](N)C(=O)O
Param threshold (80%) applies to inhibition at 10 µM; output 1 (yes) when value >= threshold, 0 (no) when value < threshold.

- molecule: "[H]/N=C(\\N)NCCCC(NC(C)=O)C(=O)NC(CC1CCCCC1)C(=O)NC(CC1CCCCC1)C(=O)NC(CC1CCCCC1)C(=O)NC(CCCN)C(N)=O (centres unmarked)"
  assigned class: "0 (no)"
- molecule: "CCCCC(NC(=O)C(CC1CCCCC1)NC(=O)C(CCCNC(=N)N)NC(C)=O)C(=O)NC(CC1CCCCC1)C(=O)NC(CCCN)C(N)=O (centres unmarked) [Example 3] (Ac-R[Cha][Nle][Cha][Orn]-NH2; configuration not given here)"
  assigned class: "0 (no)"
- molecule: "CCCCC(NC(=O)C(CC1CCCCC1)NC(=O)C(CCCNC(=N)N)NC(C)=O)C(=O)NC(CC1CCCCC1)C(N)=O [Example 7, N-Acetyl-L-Arg-L-Cha-L-Nle-L-Cha amide] (Ac-R[Cha][Nle][Cha]-NH2; configuration not given here)"
  assigned class: "0 (no)"

We next turn to a different molecule, shown below.
API: above_or_equal(metric=inhibition at 10 µM, cutoff=80%) for item [H]/N=C(\N)NCCCC(NC(=O)C(Cc1ccc(O)cc1)NC(=O)C1CCCN1C(=O)C(CC1CCCCC1)NC(=O)C(CCCN/C(N)=N/[H])NC(C)=O)C(N)=O (centres unmarked)
1 (yes)
